This listing pairs compounds with measured MIC.
- Tested on: Enterococcus faecium
- Assay Remarks: Antibacterial activity against vancomycin-susceptible Enterococcus faecium after 16 hrs by broth microdilution method
- Type: functional
Number only, in µg/mL; omit the unit.

Entry Smiles	MIC (µg/mL)
CO/N=C(\C(=O)N[C@@H]1C(=O)N2C(C(=O)O)=C(COC(C)=O)CS[C@H]12)c1csc(N)n1	1
CC1(C)S[C@@H]2[C@H](NC(=O)[C@H](N)c3ccccc3)C(=O)N2[C@H]1C(=O)O	0.25
Cl.O=c1cc(NCCCNCc2ccc(Cl)c(Cl)c2)[nH]c2ccccc12	1

Note: attention shifts to another entry.
Recorded MIC (compound "Fc1cc2nc(NCCCNCc3ccc(Cl)c(Cl)c3)sc2cc1F" ): 2
